target: xanthine oxidase (Homo sapiens, UniProt P47989); experiment: Xanthine oxidase inhibitory activity, 96 well plate, kinetic reading at 295 nm; format: biochemical; details: compound concentration 0.1 μM
Sequence (P47989 whole entry, species assumed): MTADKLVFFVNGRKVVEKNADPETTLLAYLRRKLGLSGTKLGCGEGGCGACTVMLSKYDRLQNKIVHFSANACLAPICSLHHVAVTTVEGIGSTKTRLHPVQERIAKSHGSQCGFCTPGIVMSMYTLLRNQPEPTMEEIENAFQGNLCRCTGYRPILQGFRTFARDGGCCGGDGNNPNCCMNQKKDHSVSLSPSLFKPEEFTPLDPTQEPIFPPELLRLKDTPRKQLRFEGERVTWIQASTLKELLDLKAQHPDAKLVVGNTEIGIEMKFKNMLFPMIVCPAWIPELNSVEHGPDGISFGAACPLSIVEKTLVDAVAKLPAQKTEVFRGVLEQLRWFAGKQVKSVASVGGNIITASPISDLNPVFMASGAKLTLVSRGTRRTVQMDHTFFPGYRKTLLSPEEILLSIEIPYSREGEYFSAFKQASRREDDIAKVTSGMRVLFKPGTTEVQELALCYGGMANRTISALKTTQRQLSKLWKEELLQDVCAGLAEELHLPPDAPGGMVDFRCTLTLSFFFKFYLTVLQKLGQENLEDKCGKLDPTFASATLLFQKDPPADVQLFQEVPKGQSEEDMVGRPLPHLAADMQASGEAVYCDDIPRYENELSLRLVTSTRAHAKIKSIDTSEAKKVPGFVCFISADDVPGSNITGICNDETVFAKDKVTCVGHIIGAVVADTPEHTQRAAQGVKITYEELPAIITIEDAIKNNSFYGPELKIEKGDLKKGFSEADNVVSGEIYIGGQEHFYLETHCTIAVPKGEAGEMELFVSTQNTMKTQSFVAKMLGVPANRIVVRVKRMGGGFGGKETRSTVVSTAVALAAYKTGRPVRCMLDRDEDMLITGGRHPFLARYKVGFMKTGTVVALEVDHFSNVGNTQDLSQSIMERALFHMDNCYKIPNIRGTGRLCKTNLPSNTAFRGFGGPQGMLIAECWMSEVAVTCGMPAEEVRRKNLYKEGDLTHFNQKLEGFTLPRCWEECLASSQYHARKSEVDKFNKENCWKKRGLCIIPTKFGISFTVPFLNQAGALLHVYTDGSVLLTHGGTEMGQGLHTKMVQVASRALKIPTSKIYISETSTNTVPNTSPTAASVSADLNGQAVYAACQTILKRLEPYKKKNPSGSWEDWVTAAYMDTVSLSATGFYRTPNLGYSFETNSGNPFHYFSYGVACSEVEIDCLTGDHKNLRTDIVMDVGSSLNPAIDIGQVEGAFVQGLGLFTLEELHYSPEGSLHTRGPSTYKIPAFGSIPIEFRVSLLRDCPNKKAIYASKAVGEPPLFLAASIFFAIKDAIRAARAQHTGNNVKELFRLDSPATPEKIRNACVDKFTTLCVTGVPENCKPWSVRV
assay readout: PERCENT XANTHINE OXIDASE INHIBITION (%)

Below: 4 molecules and their reported PERCENT XANTHINE OXIDASE INHIBITION.
O=C(OCCN1CCOCC1)c1ccc(-c2nnn[nH]2)cc1 :: 12
CCCCc1ccc(NC(=O)c2ccc(-c3nnn[nH]3)cc2)cc1 :: 63
O=C(O)c1ccc(NC(=O)c2ccc(-c3nnn[nH]3)cc2)cc1 :: 68
N#Cc1cc(-c2nnn[nH]2)ccc1C(=O)Nc1nccs1 :: 30

(I) O=C(Nc1ccc(Cl)c(Cl)c1)c1ccc(-c2nnn[nH]2)cc1
(II) O=C(OCc1ccc(Cl)cc1)c1ccc(-c2nnn[nH]2)cc1
Query: Among I and II , whose measured PERCENT XANTHINE OXIDASE INHIBITION is the smaller figure? # reply format: chosen label
Reply: I
